Just for reference, patent US20260159525A1 is where these values come from.

Recorded IC50 by entry
test system: SW620 Yap KO cells; test: Viability assay in SW620 Yap KO (Yap independent) cells, CyQUANT; type: cell-based; details: Homo sapiens, SW-620, SW620 YAP and TAZ knocked out (YAP independent), 96 hour incubation, n.d. (x) = not detectable below threshold x

{"compound": "Cn1nc2c3sc(C(=O)O)cc3n(-c3ccc(OC(F)(F)F)cc3)c2n1 [Compound 27]", "assayedSystem": "SW620 Yap KO cells", "IC50": "> 30 µM"}

Can you share its IC50? I mean this compound: Cn1cc2c3cc(-c4noc(=O)[nH]4)sc3n(-c3ccc(C(F)(F)F)cc3)c2n1 [Compound 80]
> 30 µM

Can you share its IC50? I mean this compound: Cn1cc2c3cc(C(=O)NCCO)sc3n(-c3ccc(C(F)(F)F)cc3)c2n1 [Compound 64]
> 3 µM

Can you share its IC50? I mean this compound: Cn1cc2c3cc(C(=O)NCc4ccccn4)sc3n(-c3ccc(C(F)(F)F)cc3)c2n1 [Compound 66]
> 3 µM

Can you share its IC50? I mean this compound: Cn1cc2c3sc(C(=O)O)cc3n(-c3ccc(OC(F)F)cc3)c2n1 [Compound 10]
> 30 µM

Can you share its IC50? I mean this compound: Cn1ccc(C(CO)NC(=O)c2cc3c4cn(C)nc4n(-c4ccc(C(F)(F)F)cc4)c3s2)n1 (centres unmarked) [Compound 96]
> 30 µM

Can you share its IC50? I mean this compound: Cn1cc2c3cc(C(=O)N[C@@H](CO)c4ccccn4)sc3n(-c3ccc(C(F)(F)F)cc3)c2n1 [Compound 35]
> 3.2 µM

Can you share its IC50? I mean this compound: CNC(=O)c1cc2c3cn(C)nc3n(-c3ccc(OC(F)(F)F)cn3)c2s1 [Compound 124]
> 3 µM

* * *

test system: YAP-TEAD interaction; assay: SK-HEP-1 reporter assay (8x TEAD responsive elements driving NanoLuc luciferase); assay type: cell-based; conditions: Homo sapiens, SK-HEP1, SK-HEP-1 cells, 24 hour incubation, number, or n.d. (x) = not detectable below threshold x
reportedMetric: IC50

These solved cases illustrate the format of a correct answer.
{"molecule": "Cn1cc2c3cc(C(=O)NC[C@@H](O)CO)sc3n(-c3ccc(C(F)(F)F)cc3)c2n1 (single isomer, unassigned) [Compound 128]", "reportedMetric": "IC50", "reading": "> 30 µM"}
{"molecule": "CC[C@H](CO)NC(=O)c1cc2c3cn(C)nc3n(-c3ccc(C(F)(F)F)cn3)c2s1 [Compound 114]", "reportedMetric": "IC50", "reading": "> 3 µM"}

Would you kindly look at the next entry?
Can you share its IC50? I mean this molecule: Cn1cc2c3cc(C(=O)N=[S@@](C)(=O)CCCO)sc3n(-c3ccc(C(F)(F)F)cc3)c2n1 (single isomer, unassigned) [Compound 61]
> 9.5 µM

* * *

system: YAP-TEAD interaction; assay: SK-HEP-1 reporter assay (8x TEAD responsive elements driving NanoLuc luciferase); format: cell-based; details: Homo sapiens, SK-HEP1, SK-HEP-1 cells, 24 hour incubation, number, or n.d. (x) = not detectable below threshold x
pIC50: −log10 of the molar value.
Recorded pIC50 by entry

These solved cases illustrate the format of a correct answer.
{"molecule": "C[C@H](CO)NC(=O)c1cc2c3cn(C)nc3n(-c3ccc(C(F)(F)F)cn3)c2s1", "pIC50": "< 4.52"}
{"molecule": "Cn1cc2c3cc(C(=O)NC[C@H](O)CO)sc3n(-c3ccc(C(F)(F)F)cc3)c2n1 (single isomer, unassigned)", "pIC50": "< 6.02"}
{"molecule": "Cn1cc2c3cc(C(=O)NC(CO)CO)sc3n(-c3ccc(C(F)(F)F)cc3)c2n1", "pIC50": "< 5.02"}
{"molecule": "Cn1cc2c3cc(C(=O)NCCN4CCOCC4)sc3n(-c3ccc(C(F)(F)F)cc3)c2n1", "pIC50": "< 6.52"}
{"molecule": "C[C@H](CO)NC(=O)c1cc2c3cn(C)nc3n(-c3ccc(OC(F)F)cn3)c2s1", "pIC50": "< 6.52"}
{"molecule": "Cn1cc2c3cc(C(=O)N[C@@H](CO)C4CCC4)sc3n(-c3ccc(C(F)(F)F)cc3)c2n1 (single isomer, unassigned)", "pIC50": "< 5.02"}

Can you share its pIC50? I mean this molecule: Cn1cc2c3cc(C(=O)NCc4cccnc4)sc3n(-c3ccc(C(F)(F)F)cc3)c2n1
< 5.02

Can you share its pIC50? I mean this molecule: CC(=O)NCCOCCOCCNC(=O)c1cc2c3cn(C)nc3n(-c3ccc(C(F)(F)F)cc3)c2s1
< 5.52

Can you share its pIC50? I mean this molecule: Cn1cc2c3cc(C(=O)N=[S@](C)(=O)CCCO)sc3n(-c3ccc(C(F)(F)F)cc3)c2n1 (single isomer, unassigned)
< 6.52

Can you share its pIC50? I mean this molecule: Cn1cc2c3cc(C(N)=O)sc3n(-c3ccc(C(F)(F)F)cc3)c2n1
6.01

Can you share its pIC50? I mean this molecule: CNC(=O)c1cc2c3cn(C)nc3n(-c3ccc(OC(F)F)cn3)c2s1
< 4.52

Can you share its pIC50? I mean this molecule: Cn1ccc([C@H](CO)NC(=O)c2cc3c4cn(C)nc4n(-c4ccc(C(F)(F)F)cc4)c3s2)n1 (single isomer, unassigned)
< 7.02

Can you share its pIC50? I mean this molecule: COCC[C@@H](CO)NC(=O)c1cc2c3cn(C)nc3n(-c3ccc(C(F)(F)F)cc3)c2s1 (single isomer, unassigned)
< 6.52

Can you share its pIC50? I mean this molecule: Cn1cc2c3cc(C(=O)NCC(O)CO)sc3n(-c3ccc(C(F)(F)F)cn3)c2n1 (centres unmarked)
< 6.52

* * *

Recorded pIC50 by entry
test system: SW620 Yap KO cells; assay: Viability assay in SW620 Yap KO (Yap independent) cells, CyQUANT; type: cell-based; conditions: Homo sapiens, SW-620, SW620 YAP and TAZ knocked out (YAP independent), 96 hour incubation, n.d. (x) = not detectable below threshold x
pIC50: −log10 of the molar value.

These solved cases illustrate the format of a correct answer.
{"compound": "Cn1cc2c3cc(C(=O)N[C@@H](CO)c4ccccn4)sc3n(-c3ccc(OC(F)(F)F)cn3)c2n1", "pIC50": "< 4.52"}
{"compound": "C[C@@H](O)CNC(=O)c1cc2c3cn(C)nc3n(-c3ccc(C(F)(F)F)cc3)c2s1", "pIC50": "< 5.52"}
{"compound": "Cn1cc2c3cc(C(=O)O)sc3n([C@H]3CC[C@@H](C(F)(F)F)CC3)c2n1", "pIC50": "< 4.52"}
{"compound": "Cn1cc2c3cc(C(=O)N4CC[C@H](O)C4)sc3n(-c3ccc(C(F)(F)F)cc3)c2n1", "pIC50": "< 5.49"}
{"compound": "CC[C@H](CO)NC(=O)c1cc2c3cn(C)nc3n(-c3ccc(C(F)(F)F)cc3)c2s1", "pIC50": "< 5.52"}
{"compound": "Cn1cc2c3cc(C(=O)O)sc3n([C@H]3CC[C@H](C(F)(F)F)CC3)c2n1", "pIC50": "< 4.52"}
{"compound": "CNC(=O)c1cc2c3cn(C)nc3n(-c3ccc(C(F)F)cc3)c2s1", "pIC50": "< 4.52"}
{"compound": "Cn1cc2c3cc(C(=O)NCc4ccncc4)sc3n(-c3ccc(C(F)(F)F)cc3)c2n1", "pIC50": "< 5.49"}
{"compound": "C[C@H](CO)NC(=O)c1cc2c3cn(C)nc3n(-c3ccc(OC(F)(F)F)cc3)c2s1", "pIC50": "< 4.52"}
{"compound": "Cn1cc2c3cc(C(=O)N=[S@](C)(=O)CCCO)sc3n(-c3ccc(C(F)(F)F)cc3)c2n1 (single isomer, unassigned)", "pIC50": "< 5.52"}

Can you share its pIC50? I mean this compound: Cn1ccc([C@@H](CO)NC(=O)c2cc3c4cn(C)nc4n(-c4ccc(C(F)(F)F)cc4)c3s2)n1 (single isomer, unassigned)
< 4.52

Can you share its pIC50? I mean this compound: Cn1cc2c3cc(C(=O)N[C@@H](CCO)c4cncs4)sc3n(-c3ccc(C(F)(F)F)cc3)c2n1 (single isomer, unassigned)
< 5.52

Can you share its pIC50? I mean this compound: Cn1cc2c3cc(C(=O)N[C@@H](CO)c4ccccn4)sc3n(-c3ccc(OC(F)F)cn3)c2n1
< 4.52

Can you share its pIC50? I mean this compound: C[C@H](CO)NC(=O)c1cc2c3cn(C)nc3n(-c3ccc(OC(F)F)cn3)c2s1
< 4.52

Can you share its pIC50? I mean this compound: CCNC(=O)c1cc2c3cn(C)nc3n(-c3ccc(C(F)(F)F)cc3)c2s1
< 5.52

Can you share its pIC50? I mean this compound: Cn1cc2c3cc(C(=O)N4CC[C@@H](O)C4)sc3n(-c3ccc(C(F)(F)F)cc3)c2n1
< 5.52

Can you share its pIC50? I mean this compound: Cn1cc2c3cc(C(=O)O)sc3n(-c3ccc(C(F)F)cn3)c2n1
< 4.52

Can you share its pIC50? I mean this compound: Cn1cc2c3cc(C(=O)O)sc3n(-c3ccc(SC(F)(F)F)cc3)c2n1
< 4.52

Can you share its pIC50? I mean this compound: Cn1cc2c3cc(C(=O)NCCN4CCOCC4)sc3n(-c3ccc(C(F)(F)F)cc3)c2n1
< 5.52

Can you share its pIC50? I mean this compound: C[C@@H](CO)NC(=O)c1cc2c3cn(C)nc3n(-c3ccc(C(F)(F)F)cc3)c2s1
< 5.52

Can you share its pIC50? I mean this compound: Cn1cc2c3cc(C(=O)O)sc3n(-c3ccc(C(F)(F)F)cc3)c2n1
< 4.52
